Where do the numbers come from? From patent US6784137B2.

Parameter: melting point

Prompt: Name the recorded melting point of the item COC(=O)c1nc(-c2ccc(Cl)cc2Cl)c(F)c(NC(C)=O)c1Cl [Compound 49] in your answer.
Completion: 178 to 179 °C

Prompt: Specify measured melting point for COc1ccccc1-c1cc(N)c(Cl)c(C(=O)O)n1 [Compound 139] .
Completion: 177 to 179 °C

###

// reported melting point for each item listed
Record the value in °C, omitting the unit from your answer.

- Compound: "COC(=O)c1nc(-c2ccco2)cc(N)c1Cl [Compound 110]"
  Parameter: "melting point"
  Measured Number: 117
- Compound: "COC(=O)c1nc(-c2ccc(Cl)cc2)cc(N)c1Cl [Compound 19]"
  Parameter: "melting point"
  Measured Number: 132

Then there is this compound:
Prompt: Find the measured melting point of COC(=O)c1nc(-c2nc3ccccc3s2)cc(N)c1Cl [Compound 9] and report it.
Completion: 224
